Task for the reader: assign each of the following sequences its reported sensor-assay potency score (higher = more potent).
# system_under_test: MYNN; also: reference of the scale not given here
# assay_summary: pooled miR-30 sensor sort-seq; sequence = guide strand
# condition_info: shRNA
Answer with a bare number; do not write a unit.

**Q:** Please list sensor-assay potency score (higher = more potent) recorded for the sequence `TTATGTATTCTCATGTGCCTTC`
**A:** 0.676

**Q:** Please indicate sensor-assay potency score (higher = more potent) recorded for `TCGATTATTATAATCTCGCAGA`
**A:** -0.633

**Q:** Please look at this sequence and report its sensor-assay potency score (higher = more potent): `TTATTTGTGCAACTTGTTCTAC`
**A:** 0.0284

**Q:** Name the recorded sensor-assay potency score (higher = more potent) of the sequence listed here: `TTTTTCTTCACCATGATGCATG`
**A:** -0.931

**Q:** Look up and state reported sensor-assay potency score (higher = more potent) for `TTGAGATTGCTAGAAGTCGCAA`
**A:** -0.134
